test system: Swiss albino mice; test: Acute toxicity; assay type: in vivo; details: dosage 300 mg/kg, i.p., observed 24 h
endpoint: number of animals dead/tot number of animals tested

[ask] I have this compound here, `COc1ccc(-c2nc3ccccc3s2)cc1OCc1nnc(-c2cc([N+](=O)[O-])cc([N+](=O)[O-])c2O)o1` , and I need its recorded number of animals dead/tot number of animals tested.
[reply] 0/3

[ask] I have this compound here, `COc1ccc(-c2nc3ccccc3s2)cc1OCc1nnc(-c2ccc(N(C)C)cc2)o1` , and I need its recorded number of animals dead/tot number of animals tested.
[reply] 0/3

[ask] I have this compound here, `COc1ccc(-c2nc3ccccc3s2)cc1OCc1nnc(-c2ccc(N)cc2)o1` , and I need its recorded number of animals dead/tot number of animals tested.
[reply] 0/3

[ask] I have this compound here, `COc1ccc(-c2nc3ccccc3s2)cc1OCc1nnc(Cc2ccccc2)o1` , and I need its recorded number of animals dead/tot number of animals tested.
[reply] 1/3

[ask] I have this compound here, `COc1ccc(-c2nnc(COc3cc(-c4nc5ccccc5s4)ccc3OC)o2)cc1` , and I need its recorded number of animals dead/tot number of animals tested.
[reply] 0/3

Next:
[ask] I have this compound here, `COc1ccc(-c2nc3ccccc3s2)cc1OCc1nnc(-c2ccccc2)o1` , and I need its recorded number of animals dead/tot number of animals tested.
[reply] 2/3

---

tested on: Swiss albino mice; assay: Acute toxicity; format: in vivo; settings: dosage 300 mg/kg, i.p., observed 24 h
endpoint: number of animals dead/tot number of animals tested

Example results:
[ask] I have this compound here, COc1ccc(-c2nc3ccccc3s2)cc1OCc1nnc(-c2ccc([N+](=O)[O-])cc2)o1 [6h] , and I need its recorded number of animals dead/tot number of animals tested.
[reply] 0/3

[ask] I have this compound here, COc1ccc(-c2nc3ccccc3s2)cc1OCc1nnc(-c2ccc(Br)cc2)o1 [6c] , and I need its recorded number of animals dead/tot number of animals tested.
[reply] 2/3

[ask] I have this compound here, COc1ccc(-c2nc3ccccc3s2)cc1OCc1nnc(-c2ccc(O)cc2)o1 [6l] , and I need its recorded number of animals dead/tot number of animals tested.
[reply] 0/3

Others:
[ask] I have this compound here, COc1ccc(-c2nc3ccccc3s2)cc1OCc1nnc(C(c2ccccc2)c2ccccc2)o1 [6i] , and I need its recorded number of animals dead/tot number of animals tested.
[reply] 1/3

[ask] I have this compound here, CCC1(c2ccccc2)C(=O)NC(=O)NC1=O [phenobarbital, reference compound] , and I need its recorded number of animals dead/tot number of animals tested.
[reply] 0/3

[ask] I have this compound here, COc1ccc(-c2nc3ccccc3s2)cc1OCc1nnc(-c2ccc(Cl)cc2)o1 [6g] , and I need its recorded number of animals dead/tot number of animals tested.
[reply] 1/3

[ask] I have this compound here, O=C1NC(=O)C(c2ccccc2)(c2ccccc2)N1 [phenytoin, reference compound] , and I need its recorded number of animals dead/tot number of animals tested.
[reply] 0/3

[ask] I have this compound here, COc1ccc(-c2nc3ccccc3s2)cc1OCc1nnc(-c2c(C)cccc2C)o1 [6k] , and I need its recorded number of animals dead/tot number of animals tested.
[reply] 1/3

[ask] I have this compound here, COc1ccc(-c2nc3ccccc3s2)cc1OCc1nnc(-c2c(OC)cccc2OC)o1 [6n] , and I need its recorded number of animals dead/tot number of animals tested.
[reply] 0/3
